Tested on: Diabrotica balteata (Corn Root Worm)
assay info: Example B1: Activity against Diabrotica balteata (corn root worm), sprayed maize sprouts
Format: in vivo
condition set: 96 h, application rate 200 ppm, L2 larvae on sprayed maize sprouts, 4 days after infestation, read-out: effect in at least one of the two categories (mortality or growth inhibition)
Reported values of percent effect (mortality or growth inhibition) at 200 ppm for individual entries
assay metric: percent effect (mortality or growth inhibition) at 200 ppm

[[record]]
compound = "CCS(=O)(=O)c1cc(C2(C#N)CC2)cnc1-c1cc2ncn(CC(F)(F)C(F)(F)F)c2cn1 [Compound P34]"
endpoint_result = "≥ 80%"

[[record]]
compound = "CCS(=O)(=O)c1ccc(-n2cncn2)nc1-c1cc2cnn(CC(F)(F)C(F)(F)F)c2cn1 [Compound P22]"
endpoint_result = "≥ 80%"

[[record]]
compound = "CCSc1cc(-n2ccc(C(F)(F)F)n2)cnc1-c1cc2cnn(CC(F)(F)C(F)(F)F)c2cn1 [Compound P50]"
endpoint_result = "≥ 80%"

[[record]]
compound = "CCSc1cc(C(C)(C)C#N)cnc1-c1cc2ncn(CC(F)(F)C(F)(F)F)c2cn1 [Compound P47]"
endpoint_result = "≥ 80%"

[[record]]
compound = "CCS(=O)(=O)c1ccc(Cl)nc1-c1cc2ccn(CC(F)(F)C(F)(F)F)c2cn1 [Compound P36]"
endpoint_result = "≥ 80%"

[[record]]
compound = "CCS(=O)(=O)c1cc(Oc2ccccn2)cnc1-c1cc2ccn(CC(F)(F)C(F)(F)F)c2cn1 [Compound P17]"
endpoint_result = "≥ 80%"

[[record]]
compound = "CCS(=O)(=O)c1ccc(-c2ncccn2)nc1-c1cc2cnn(CC(F)(F)C(F)(F)F)c2cn1 [Compound P25]"
endpoint_result = "≥ 80%"

[[record]]
compound = "CCS(=O)(=O)c1cc(-n2ccc(Cl)n2)cnc1-c1cc2cnn(CC(F)(F)C(F)(F)F)c2cn1 [Compound P46]"
endpoint_result = "≥ 80%"

